# subjectOfTest: STARD5 (Homo sapiens)
# Construct: STARD5(6-213); host or cells: E. coli BL21(DE3)
# Sequence (Q9NSY2 6-213): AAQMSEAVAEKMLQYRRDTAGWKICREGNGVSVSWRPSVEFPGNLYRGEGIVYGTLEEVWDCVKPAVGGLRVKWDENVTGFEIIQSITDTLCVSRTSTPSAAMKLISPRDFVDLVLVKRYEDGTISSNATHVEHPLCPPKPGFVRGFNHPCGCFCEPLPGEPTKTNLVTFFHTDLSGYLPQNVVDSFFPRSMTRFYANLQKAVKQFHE
# testMethodNotes: Differential scanning fluorimetry (DSF), STARD5
# Format: binding
# settings: single dose, Dose = 10 µM
# Lookup of reported STARD5 (DSF) ΔTm keyed by entry
Entry format: amount then unit.

C[C@]12CC[C@@H](O)C[C@H]1CCC[C@]21Nc2ccccc2-n2cccc21 = 0.276 °C
C[C@]12CC[C@@H](O)C[C@H]1CCc1c2nc2ccccc2c1-c1ccccc1 = 0.0879 °C
CC12CCC3CC1CCC21C(=Nc2ccc(N4CCOCC4)cc21)O3 (single isomer, unassigned; (+)) [(+)-19a] = 0.32 °C

# get_value(readout='STARD5 (DSF) ΔTm', item= `C[C@]12CC[C@@H](O)C[C@H]1CCC[C@]21NC(=O)c2ccc(F)cc2N1` ) 0.158 °C
